# Method description: endothelial E-selectin expression blockers – imaging, HUVEC, immunofluorescence, MLSMR starter and 10KST1 sets, primary screen (AID 487);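 for inhibition: signal is fraction of cell area covered by stained E-selectin grains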
# Protocol conditions: HUVEC TNFalpha-induced E-selectin immunofluorescence imaging, at 2 µM; stronger effect = higher value
Result type: inhibition (%)
Numbers only, in %.

Compound	inhibition, %
COc1ccc(C(=O)C(C)(C)NO)cc1	-81.1
O=C1CC(N2CCC(n3c(=O)[nH]c4ccccc43)CC2)C(=O)N1c1ccc(F)cc1 (stereo not given)	-52.5
COCCOC(=O)C1=C(N)Oc2c(c(=O)oc3ccccc23)C1c1ccncc1 (stereo not given)	1.8
CCCCOCCCn1c(N)c(C(=O)OC(C)COC)c2nc3ccccc3nc21 (stereo not given)	-75.8
CCC(=NCCN1CCCCC1)c1c(O)n(C)c(=O)n(C)c1=O	-61.5

List the reported inhibition of each compound below.
1. C[N+]1(C)CCN(c2ccccc2)CC1
2. COC1=CC(=O)OC(/C=C/c2ccccc2)C1 (stereo not given)
3. CN1CCN(C(=O)OC2c3nccnc3C(=O)N2c2ccc(Cl)cn2)CC1 (stereo not given)

1: -66.8; 2: 1.6; 3: -132

State recorded inhibition for all listed compounds.
1. CN1CCC(OC(=O)C2c3ccccc3Oc3ccccc32)CC1
2. O=c1[nH]c(=O)n(Cc2ccco2)c(O)c1C=NCc1ccc2c(c1)OCO2
3. Oc1ccc(C2NCc3ccccc3-n3cccc32)cc1Cl (stereo not given)
4. CCOC(C(=O)OCC(O)CN(CC)CC)(c1ccccc1)c1ccccc1 (stereo not given)
5. CNC(=O)N(C)c1nnc(C(C)(C)C)s1
6. Cc1ccc(-n2c(O)c(C=NCCN3CCOCC3)c(=O)[nH]c2=O)cc1

[-38.4, 50.7, -48.5, -341, -26, -76.6]

Go through the list and state inhibition for each entry.
1. COC(=O)C1C2c3ccccc3OC1(C)N=c1s/c(=C/c3cnn(C)c3C)c(=O)n12 (stereo not given)
2. CCN1c2nc3c(C)cccn3c(=O)c2CC2(C(=O)N(C)C(=O)N(C)C2=O)C1C (stereo not given)
3. CCCN(CC#CCO)CCC
4. CC(C)C(=O)c1cn(Cc2ccccc2C#N)c2ccccc12
5. COC(=O)C(O)(c1ccc(NC(=O)c2ccco2)c(OC)c1)C(F)(F)F (stereo not given)

1: -82.7; 2: 19.8; 3: -121; 4: -24.8; 5: 1

Hey, can you go through the list below and give me inhibition for every item?
1. CN1CC[C@@]23CCCC[C@@H]2[C@@H]1Cc1ccc(O)cc13
2. Cc1ccc(CC2C(=O)N(C)C(=O)N(C)C2=O)s1
3. [N-]=[N+]=CC(=O)OC[C@H](N)C(=O)O

-41.4
40.2
-25.7

For every record below, what is its inhibition?
1. Cc1ccc(C)c(C2(O)CC(C)N(C)CC2C)c1 (stereo not given)
2. OC(Cc1ccccc1)(c1ccccc1)C1CN2CCC1CC2 (stereo not given)
3. CC(NC(C)(C)C)C(=O)c1cccc(Cl)c1 (stereo not given)
4. CSc1ccc(C(=O)C(C)(C)N2CCOCC2)cc1

1: -53.3; 2: -124; 3: -75.7; 4: -65.3

Batch: inhibition for all items listed.
1. C[C@H]1CCCC(=O)CCC/C=C/c2cc(O)cc(O)c2C(=O)O1
2. Cc1nn(Cc2ccccc2Cl)c(Cl)c1C(=O)OCC(=O)NCc1ccco1

-42
-20.7

List the reported inhibition of each compound below.
1. CC(C)=CCSc1nnc([C@@H](N)Cc2c[nH]c3ccccc23)o1
2. COc1ccccc1N(CC(=O)NC1CCCCC1)C(=O)c1cnn(C(C)C)c1

1: 2.3; 2: -128

----------
# Assay system: Muscarinic acetylcholine receptor M4 (Homo sapiens)
# Method description: M4-linked GIRK flux change, two-sided – cell-based, HEK293 M4/GIRK, thallium flux, BTC-AM, M4 allosteric agonist project, primary screen (AID 625);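 note: thallium influx through GIRK channels coupled to M4 in HEK293 cells with BTC-AM dye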
# Protocol conditions: at 10 µM, actives lie on both sides
Result type: fluorescence slope
Answers are plain numbers.

Example results:
Compound	fluorescence slope
NC(=O)CSP(=O)(c1ccccc1)c1ccccc1	0.00487
CCOC(=O)C1=C(C)OC(N)=C(C(=O)OCC)[C@@]12C(=O)N(CC(N)=O)c1ccccc12	0.00512
COC(=O)C(O)(c1ccc(NC(=O)c2ccco2)c(OC)c1)C(F)(F)F (centres undefined)	0.00513

Continue with the next compound.
What does the data say about its fluorescence slope? Entry: CC1=NOC2(C)Nc3ncnn3C(c3ccccc3)C12 (centres undefined)
0.00509

----------
Field: nuclei count. Provide a value for each of the compounds that follow.
# Method description: endothelial E-selectin expression blockers – imaging, HUVEC, immunofluorescence, MLSMR starter and 10KST1 sets, primary screen (AID 487);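 for nuclei count: 100% = median nuclei count of all wells on the same plate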
# Protocol conditions: HUVEC TNFalpha-induced E-selectin immunofluorescence imaging, at 2 µM; measured here: cell number, toxicity
Give bare numbers, in %.

Here are 5 compounds together with their reported answers.
Compound	Units text	nuclei count
CCOC(=O)c1cc2c(cn1)[nH]c1ccccc12	%	110
Nc1c(C(=O)NCc2ccco2)c2nc3ccccc3nc2n1CCN1CCCCC1	%	138
O=C(C1CCCN(S(=O)(=O)c2cccc3nsnc23)C1)N1CCC2(CC1)OCCO2 (stereo unspecified)	%	125
O=c1[nH]c2ccccc2n1C1CCN(CCCC(c2ccc(F)cc2)c2ccc(F)cc2)CC1	%	108
Cc1ccc(-n2c(O)c(C=NCCN3CCOCC3)c(=O)[nH]c2=O)cc1	%	147

// for each compound in input: emit nuclei count
1. C=CCN1C(=O)C2(C(C(=O)OCC)=C(N)Oc3c2c(=O)oc2ccccc32)c2ccccc21 (stereo unspecified)
2. CCCNC(=O)c1c(N)n(Cc2ccc3c(c2)OCO3)c2nc3ccccc3nc12
3. CCCc1nc2ccccc2c(=O)n1-c1ccccc1OC
4. Cn1c(=O)cc(OCC(=O)N2CCN(C3CCCCC3)CC2)c2ccccc21
5. CNCCc1nc(N)n[nH]1

1: 91.1; 2: 107; 3: 134; 4: 113; 5: 139

Give the measured nuclei count of C=C1CC[C@@]2(O)[C@H]3Cc4ccc(O)c5c4[C@@]2(CCN3CC2CC2)[C@H]1O5 .
109

----------
# Method description: endothelial E-selectin expression blockers – imaging, HUVEC, immunofluorescence, MLSMR starter and 10KST1 sets, primary screen (AID 487);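 for nuclei count: 100% = median nuclei count of all wells on the same plate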
# Protocol conditions: HUVEC TNFalpha-induced E-selectin immunofluorescence imaging, at 2 µM; measured here: cell number, toxicity
Please provide measured nuclei count for the entries that follow.
Numbers only, in %.

Some entries whose results are on file:
Compound	nuclei count, %
c1ccc2c(c1)[nH]c1cnccc12	113
Cc1nc2ccccc2c(=O)n1-c1ccc(F)cc1	111
Oc1ccc(C2NCc3ccccc3-n3cccc32)cc1Cl (stereo not drawn)	110
CCOC(=O)C1=C(N)OC(C)=C(C(=O)OCCOC)C12C(=O)Nc1ccccc12 (stereo not drawn)	97

# per-item lookup of nuclei count; items listed below
1. COc1ccccc1CN1CCN(C(=O)Cc2ccccc2)CC1
2. Cn1c(O)c(C=NCc2ccco2)c(=O)n(C)c1=O
3. COc1ccc2c(c1OC)C(=O)OC2c1c(O)n(C2CCCCC2)c(=O)[nH]c1=O (stereo not drawn)
4. O=C(O)C1(c2ccc(Cl)cc2)CCC1
5. CN(C)CCc1nn[nH]n1
6. Cn1c(C(=O)N2CCC3(CC2)OCCO3)cc2c(=O)n(C)c3ccccc3c21
7. NCC1(CC(=O)O)CCCCC1

[112, 118, 150, 158, 115, 125, 116]

----------
# Method description: endothelial E-selectin expression blockers – imaging, HUVEC, immunofluorescence, MLSMR starter and 10KST1 sets, primary screen (AID 487);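 for inhibition: signal is fraction of cell area covered by stained E-selectin grains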
# Protocol conditions: HUVEC TNFalpha-induced E-selectin immunofluorescence imaging, at 2 µM; stronger effect = higher value
Please note: Y applies when inhibition is -80% or greater, and N applies otherwise.

Worked examples, 3 compounds total:
Compound	Class name
CN1CC=C2C(C#N)=C(N)C(C#N)(C#N)C(c3ccncc3)C2C1 (stereo not given)	Y
Cc1ccc(O)c(CN2CCN(c3ccccc3)CC2)c1	N
COC(=O)C(c1ccccc1)N1CCCCCC1 (stereo not given)	Y

Check this compound for inhibition at or above -80%: COc1ccccc1-n1c(O)c(C=NCc2ccc3c(c2)OCO3)c(=O)[nH]c1=O
N

Param item: O=C1C2CCN(CC2)[C@@H]1Cc1ccc2ccccc2c1O
N

----------
# Assay system: Alpha-2C adrenergic receptor (Homo sapiens)
# Method description: compounds altering alpha2C-coupled GIRK flux – cell-based, HEK293 alpha2C/GIRK1/2, thallium flux, primary screen (AID 624);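 note: slope of fluorescence ratio to pre-addition baseline per second over 15 to 24 s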
# Protocol conditions: thallium flux BTC fluorescence, at 10 µM, actives lie on both sides
// assign YES if slope falls strictly below 0.005, else NO (ties count as NO)

Answered examples (3):
Structure as smiles	Assay system	Class name
CCN(CC)CCCNC(=O)c1c(O)c2ccccc2n(Cc2ccccc2)c1=O	Alpha-2C adrenergic receptor (Homo sapiens)	YES
C=CCn1c(O)c(C=Nc2ccc(N(CC)CC)cc2)c(=O)[nH]c1=O	Alpha-2C adrenergic receptor (Homo sapiens)	NO
C=CCn1c(O)c(C(C)=NCCCO)c(=O)[nH]c1=O	Alpha-2C adrenergic receptor (Homo sapiens)	YES

Strictly below 0.005: is that where slope of c1cncc(CNC2=NCCCCC2)c1 sits?
NO

// query: COc1ccc(C(=O)CN2CCOCC2)cc1F
YES

Query C=CCn1c(O)c(C(C)=NCc2cccnc2)c(=O)[nH]c1=O next
YES

And for CN1CC[C@@]23CCCC[C@@H]2[C@@H]1Cc1ccc(O)cc13 ?
YES
